Tested on: TK-10
RUN DESCRIPTION: GI50 of drug in presence of dasatinib; higher = less potent
TEST PARAMETERS: treatment: drug + dasatinib (fixed dose, not stated); 5 days
ENDPOINT: GI50 of drug (nM)
Reply numerically in nM, unit not repeated.

Query: Looking for the measured GI50 of drug of CCn1nnc2c(N3CCOCC3)nc(-c3ccc(NC(=O)Nc4ccc(C(=O)N5CCN(C)CC5)cc4)cc3)nc21 [PKI-402] + Cc1nc(Nc2ncc(C(=O)Nc3c(C)cccc3Cl)s2)cc(N2CCN(CCO)CC2)n1 [dasatinib] , can you help?
Reply: 117

* * *

Test system: 786-O
RUN DESCRIPTION: AUC of dose-response viability curve, drug + dasatinib, normalised to DMSO (arbitrary (AUC of normalised viability)); higher = less growth inhibition
TEST PARAMETERS: treatment: drug + dasatinib (fixed dose, not stated); 5 days
ENDPOINT: AUC of dose-response viability curve
Give your answer as a number; write no unit.

The examples below pair each entry with its known result.
CN(C)C1CCN(C(=O)c2ccc(NC(=O)Nc3ccc(-c4nc(N5CCOCC5)nc(N5CCOCC5)n4)cc3)cc2)CC1 + Cc1nc(Nc2ncc(C(=O)Nc3c(C)cccc3Cl)s2)cc(N2CCN(CCO)CC2)n1 ... 1.23
CCOc1cc2ncc(C#N)c(Nc3ccc(F)c(Cl)c3)c2cc1NC(=O)/C=C/CN(C)C [Pelitinib (EKB-569)] + Cc1nc(Nc2ncc(C(=O)Nc3c(C)cccc3Cl)s2)cc(N2CCN(CCO)CC2)n1 ... 1.79
FC(F)(F)c1ccc(Nc2nc3cc(Oc4ccnc(-c5ncc(C(F)(F)F)[nH]5)c4)ccc3[nH]2)cc1 [Raf265 derivative] + Cc1nc(Nc2ncc(C(=O)Nc3c(C)cccc3Cl)s2)cc(N2CCN(CCO)CC2)n1 ... 2.47

Query: Sample CN1CCN(c2nc(C3=C(c4c[nH]c5ccccc45)C(=O)NC3=O)c3ccccc3n2)CC1 [Sotrastaurin (AEB071)] + Cc1nc(Nc2ncc(C(=O)Nc3c(C)cccc3Cl)s2)cc(N2CCN(CCO)CC2)n1 — what was its AUC of dose-response viability curve?
Reply: 3.14

* * *

Tested on: SN12C
RUN DESCRIPTION: minimum viability across doses, drug + dasatinib, relative to DMSO (fraction); higher = less growth inhibition
TEST PARAMETERS: treatment: drug + dasatinib (fixed dose, not stated); 5 days
ENDPOINT: minimum viability across doses
Answer field: number only, no words.

Below, each entry is followed by its recorded minimum viability across doses result.
O=C1NC(=O)/C(=C/c2ccc3nccc(-c4ccncc4)c3c2)S1 + Cc1nc(Nc2ncc(C(=O)Nc3c(C)cccc3Cl)s2)cc(N2CCN(CCO)CC2)n1 ... 0.243
NC(=O)c1ccc(-c2nc(-c3ccc4c(c3)OCO4)c(-c3ccccn3)[nH]2)cc1 + Cc1nc(Nc2ncc(C(=O)Nc3c(C)cccc3Cl)s2)cc(N2CCN(CCO)CC2)n1 ... 0.446
CNC(=O)Nc1ccc(-c2nc(N3CC4CCC(C3)O4)c3cnn(C4CCC5(CC4)OCCO5)c3n2)cc1 + Cc1nc(Nc2ncc(C(=O)Nc3c(C)cccc3Cl)s2)cc(N2CCN(CCO)CC2)n1 ... 0.116

Query: Name the recorded minimum viability across doses for O=C1C(=O)N(Cc2ccc(Cl)c(Cl)c2)c2ccccc21 [Apoptosis Activator 2] + Cc1nc(Nc2ncc(C(=O)Nc3c(C)cccc3Cl)s2)cc(N2CCN(CCO)CC2)n1 .
Reply: 0.265

* * *

Test system: SN12C
RUN DESCRIPTION: minimum viability across doses, drug alone, relative to DMSO (fraction); higher = less growth inhibition
TEST PARAMETERS: treatment: drug alone; 5 days
# minimum viability across doses per entry
Lab note: jot the number down without any unit.

Past entries and their recorded results:
COc1ccc(C2=NC(c3ccc(Cl)cc3)C(c3ccc(Cl)cc3)N2C(=O)N2CCNC(=O)C2)c(OC(C)C)c1 (centres undefined) [Nutlin-3] ... 0.846
c1ccc2c(-c3cnn4cc(-c5ccc(N6CCNCC6)cc5)cnc34)ccnc2c1 ... 0.00261
Nc1cc(C(F)(F)F)c(-c2cc(N3CCOCC3)nc(N3CCOCC3)n2)cn1 [BKM120 (NVP-BKM120)] ... 0.0728

Query: Provide value of minimum viability across doses for this record tested with SN12C: CC(=O)c1c(C)c2cnc(Nc3ccc(N4CCNCC4)cn3)nc2n(C2CCCC2)c1=O.Cl
Reply: 0.427

* * *

Overview of recorded minimum viability across doses for various molecules
System: 786-O
RUN DESCRIPTION: minimum viability across doses, drug alone, relative to DMSO (fraction); higher = less growth inhibition
TEST PARAMETERS: treatment: drug alone; 5 days
Lab note: record just the number, no unit beside it.

Would you please look over these solved cases?
C=CC(=O)Nc1cccc(Sc2nc(Nc3ccc(N4CCN(C)CC4)cc3)ncc2Cl)c1 ... 0.00441
Cc1ccc([N+](=O)[O-])cc1S(=O)(=O)N(C)/N=C/c1cnc2ccc(Br)cn12.Cl ... 0.00345
Cn1cc(-c2ccc3ncc(Cc4ccc5ncccc5c4)n3n2)cn1 ... 0.00923

Query: For the molecule shown here, O=C1NCCc2[nH]c(-c3ccncc3)cc21 , give the reported minimum viability across doses.
Reply: 0.00414

* * *

Recorded AUC of dose-response viability curve for the following molecules
Tested on: 769-P
RUN DESCRIPTION: AUC of dose-response viability curve, drug + dasatinib, normalised to DMSO (arbitrary (AUC of normalised viability)); higher = less growth inhibition
TEST PARAMETERS: treatment: drug + dasatinib (fixed dose, not stated); 5 days

Query: For the molecule shown here, c1cncc(CN2CCC(n3ncc4c(N5CCOCC5)nc(-c5ccc6[nH]ccc6c5)nc43)CC2)c1 [WAY-600] + Cc1nc(Nc2ncc(C(=O)Nc3c(C)cccc3Cl)s2)cc(N2CCN(CCO)CC2)n1 , give the reported AUC of dose-response viability curve.
Reply: 1.93

Query: And Cc1cc2c(F)c(Oc3ncnn4cc(OC[C@@H](C)OC(=O)[C@H](C)N)c(C)c34)ccc2[nH]1 + Cc1nc(Nc2ncc(C(=O)Nc3c(C)cccc3Cl)s2)cc(N2CCN(CCO)CC2)n1 ?
Reply: 2.41

Query: Here is the next molecule: NC1(Cc2ccc(Cl)cc2)CCN(c2ncnc3[nH]ccc23)CC1 + Cc1nc(Nc2ncc(C(=O)Nc3c(C)cccc3Cl)s2)cc(N2CCN(CCO)CC2)n1
Reply: 2.5

Query: Do the same for COC(=O)c1ccc2c(c1)NC(=O)/C2=C(\Nc1ccc(N(C)C(=O)CN2CCN(C)CC2)cc1)c1ccccc1 [BIBF1120 (Vargatef)] + Cc1nc(Nc2ncc(C(=O)Nc3c(C)cccc3Cl)s2)cc(N2CCN(CCO)CC2)n1 please
Reply: 2.47

Query: Follow-up item: Cc1ccccc1-n1c(Cn2ncc3c(N)ncnc32)nc2cccc(C)c2c1=O [PIK-293] + Cc1nc(Nc2ncc(C(=O)Nc3c(C)cccc3Cl)s2)cc(N2CCN(CCO)CC2)n1
Reply: 2.55

* * *

System: A498
RUN DESCRIPTION: minimum viability across doses, drug + dasatinib, relative to DMSO (fraction); higher = less growth inhibition
TEST PARAMETERS: treatment: drug + dasatinib (fixed dose, not stated); 5 days
Consider the following compounds and their measured minimum viability across doses readings.
# answer = number (no unit)

Cc1ccc(NC(=O)c2ccc(CN3CCN(C)CC3)cc2)cc1Nc1nc(-c2cccnc2)cs1 [Masitinib (AB1010)] + Cc1nc(Nc2ncc(C(=O)Nc3c(C)cccc3Cl)s2)cc(N2CCN(CCO)CC2)n1 ... 0.622

Query: Request: minimum viability across doses, test system A498, entry Nc1ccc(-c2ccc3ncc4ccc(=O)n(-c5cccc(C(F)(F)F)c5)c4c3c2)cn1 [Torin 2] + Cc1nc(Nc2ncc(C(=O)Nc3c(C)cccc3Cl)s2)cc(N2CCN(CCO)CC2)n1
Reply: 0.0422

Query: How about this compound: Oc1cccc(-c2nc(N3CCOCC3)c3oc4ncccc4c3n2)c1 [PI-103] + Cc1nc(Nc2ncc(C(=O)Nc3c(C)cccc3Cl)s2)cc(N2CCN(CCO)CC2)n1
Reply: 0.111

Query: How about this compound: Cc1ccc(Nc2nccc(N(C)c3ccc4c(C)n(C)nc4c3)n2)cc1S(N)(=O)=O.Cl [Pazopanib HCl] + Cc1nc(Nc2ncc(C(=O)Nc3c(C)cccc3Cl)s2)cc(N2CCN(CCO)CC2)n1
Reply: 0.522

Query: Similarly, CNC(=O)c1cc(Oc2ccc(NC(=O)Nc3cc(C(C)(C)C)nn3-c3ccc4ncccc4c3)c(F)c2)ccn1 [DCC-2036 (Rebastinib)] + Cc1nc(Nc2ncc(C(=O)Nc3c(C)cccc3Cl)s2)cc(N2CCN(CCO)CC2)n1 ?
Reply: 0.0121

Query: Same for Nc1nc(NCCNc2ncc(-n3ccnc3)c(-c3ccc(Cl)cc3Cl)n2)ccc1[N+](=O)[O-] + Cc1nc(Nc2ncc(C(=O)Nc3c(C)cccc3Cl)s2)cc(N2CCN(CCO)CC2)n1
Reply: 0.474

Query: Another compound: CCn1c(N)c(C(=O)NC)c(=O)c2ccc(C#C[C@@](C)(O)COC)nc21 + Cc1nc(Nc2ncc(C(=O)Nc3c(C)cccc3Cl)s2)cc(N2CCN(CCO)CC2)n1
Reply: 0.773

Query: Could you do the same for O=C1NC(=O)/C(=C/c2ccc3c(c2)OC(F)(F)O3)S1 + Cc1nc(Nc2ncc(C(=O)Nc3c(C)cccc3Cl)s2)cc(N2CCN(CCO)CC2)n1 , please?
Reply: 0.925

Query: Now consider NC1(Cc2ccc(Cl)cc2)CCN(c2ncnc3[nH]ccc23)CC1 + Cc1nc(Nc2ncc(C(=O)Nc3c(C)cccc3Cl)s2)cc(N2CCN(CCO)CC2)n1 and answer again.
Reply: 0.401

Query: And what about the compound Cc1cc2c(C(C)C)c(O)c(O)c(C=O)c2c(O)c1-c1c(C)cc2c(C(C)C)c(O)c(O)c(C=O)c2c1O [AT101] + Cc1nc(Nc2ncc(C(=O)Nc3c(C)cccc3Cl)s2)cc(N2CCN(CCO)CC2)n1 ?
Reply: 0.835

Query: Now this one: COC(=O)Nc1ccc(-c2nc(N3CCOCC3)c3cnn(C4CCN(C(=O)OC)CC4)c3n2)cc1 [WYE-354] + Cc1nc(Nc2ncc(C(=O)Nc3c(C)cccc3Cl)s2)cc(N2CCN(CCO)CC2)n1
Reply: 0.262

Query: Cool, now C=CC(=O)Nc1cccc(Sc2nc(Nc3ccc(N4CCN(C)CC4)cc3)ncc2Cl)c1 [WZ8040] + Cc1nc(Nc2ncc(C(=O)Nc3c(C)cccc3Cl)s2)cc(N2CCN(CCO)CC2)n1
Reply: 0.113

Query: Try this compound next: Nc1cccc2c1C(=O)N(C1CCC(=O)NC1=O)C2=O (stereo not drawn) [Pomalidomide] + Cc1nc(Nc2ncc(C(=O)Nc3c(C)cccc3Cl)s2)cc(N2CCN(CCO)CC2)n1
Reply: 0.857

Query: Moving on to the next compound: NC(=O)c1ccc(-c2nc(-c3ccc4c(c3)OCO4)c(-c3ccccn3)[nH]2)cc1 + Cc1nc(Nc2ncc(C(=O)Nc3c(C)cccc3Cl)s2)cc(N2CCN(CCO)CC2)n1
Reply: 0.592

Query: And for CN(C)CCOc1ccc(-c2nc(-c3ccncc3)c(-c3ccc4c(c3)CC/C4=N/O)[nH]2)cc1 + Cc1nc(Nc2ncc(C(=O)Nc3c(C)cccc3Cl)s2)cc(N2CCN(CCO)CC2)n1 ?
Reply: 0.0493

Query: Again, but for CCS(=O)(=O)c1cccc(-c2cc(C(=O)NC3CCN(C)CC3)c(C)c3[nH]c4ncc(C)cc4c23)c1 [TAK-901] + Cc1nc(Nc2ncc(C(=O)Nc3c(C)cccc3Cl)s2)cc(N2CCN(CCO)CC2)n1
Reply: 0.013

Query: Please give the result for CC(C)(C)c1cc(/C=C(\C#N)C(N)=S)cc(C(C)(C)C)c1O [Tyrphostin AG 879 (AG 879)] + Cc1nc(Nc2ncc(C(=O)Nc3c(C)cccc3Cl)s2)cc(N2CCN(CCO)CC2)n1 too.
Reply: 1

Query: Likewise for C=CC(=O)Nc1cc2c(Nc3ccc(F)c(Cl)c3)ncnc2cc1OCCCN1CCOCC1 [CI-1033 (Canertinib)] + Cc1nc(Nc2ncc(C(=O)Nc3c(C)cccc3Cl)s2)cc(N2CCN(CCO)CC2)n1 ?
Reply: 0.0275
